Target: T1, Rhesus CD137-Fc tagged protein (rhesus, UniProt H9Z8K9 24-186)
T1 construct: extracellular domain; The Octet paragraph gives no catalogue number; also called rhCD137-Fc
Assay: BLI (Octet RED384), CD137-Fc on Protein G sensor, 1:1 model
// no (0) strictly below 70000 M⁻¹ s⁻¹ in kon; yes (1) otherwise

These recorded examples may help you get a feel for the data.
INSERT INTO assay_data (binder, assigned_category) VALUES
  ('003BB172-E01-9 (VHH, Human VH single domain antibody, monovalent) VHH: EVQLVESGGGLVQPGGSLRLSCAASGFTFSNYGMHWVRQAPGKGLEWVAVISNDGNTKTYADSVKGRFTISRDNSKNTLYLQMNSLRAEDTAVYYCAQDETTTVTASYYFDYWGQGTLVTVSS', 'yes (1)'),
  ('003BB172-E01-12 (VHH, Human VH single domain antibody, monovalent) VHH: EVQLVESGGGLVQPGRSLRLSCAASGFTFSNYGMHWVRQAPGKGLEWVAVISNDGNTKTYADSVKGRFTISRDNSKNTLYLQMNSLRAEDTAVYYCAQDETTTVTASYYFDYWGQGTLVTVSS', 'no (0)'),
  ('003BB172-E01-4 (VHH, Human VH single domain antibody, monovalent) VHH: EVQLVESGGGLVQPGGSLRLSCAASGFTFSNYGMHWVRQAPGKGLEWVAVISNDGNTKTYADSVKGRFTISRDNSKNTLYLQMTSLRTEDTAVYYCAQDETTTVTASYYFDYWGQGTLVTVSS', 'no (0)'),
  ('003BB172-E01-6 (VHH, Human VH single domain antibody, monovalent; also called CD137B) VHH: EVQLVESGGGLVQPGGSLRLSCAASGFTFSNYGMHWVRQAPGKGLEWVAVISNDGNTKTYADSVKGRFTISRDNSKNMLYLQMNSLRTEDTAVYYCAQDETTTVTASYYFDYWGQGTLVTVSS', 'yes (1)'),
  ('003BB172-E01-1 (VHH, Human VH single domain antibody, monovalent) VHH: EVQLVESGGGLVQPGGSLRLSCAASGFTFSNYGMHWVRQAPGKGLEWVAVISNDGNTKTYADSVKGRFTISRDNSKNMLYLQMTSLRTEDTAVYYCAQDETTTVTASYYFDYWGQGTLVTVSS', 'yes (1)');

Q) Assess whether reported kon for 003BB172-E01-3 (VHH, Human VH single domain antibody, monovalent) VHH: EVQLVESGGGLVQPGGSLRLSCAASGFTFSNYGMHWVRQAPGKRLEWVAVISNDGNTKTYADSVKGRFTISRDNSKNMLYLQMNSLRTEDTAVYYCAQDETTTVTASYYFDYWGQGTLVTVSS sits at 70000 M⁻¹ s⁻¹ or higher.
A) no (0)

Q) How about 003BB172-E01-11 (VHH, Human VH single domain antibody, monovalent) VHH: EVQLVESGGGVVQPGRSLRLSCAASGFTFSNYGMHWVRQAPGKGLEWVAVISNDGNTKTYADSVKGRFTISRDNSKNTLYLQMNSLRTEDTAVYYCAQDETTTVTASYYFDYWGQGTLVTVSS ?
A) yes (1)

Q) How about 003BB172-E01 (VHH, also called 003BB1172-E01) VHH: EVQLVESGGGLVQPGGSLRLSCAASGFTFSNYGMHWVRQAPGKRLEWVAVISNDGNTKTYADSVKGRFTISRDNSKNMLYLQMTSLRTEDTAVYYCAQDETTTVTASYYFDYWGQGTLVTVSS ?
A) no (0)
